Test: Stability of analytes in rat plasma (auto-sampler, freeze-thaw, room temperature, long-term)
Conditions: 50 ng/mL, autosampler 24 h
Quantity kind: Autosampler for 24 h Accuracy (%)

compound=O=c1cc(-c2ccccc2)oc2cc(O)c(O)c(O)c12 quantity_kind="Autosampler for 24 h Accuracy (%)" experimental_value=92.3
compound=C[C@@]12C[C@@]3(O)O[C@@H](O1)[C@]1(COC(=O)c4ccccc4)[C@H]3C[C@@]12O[C@@H]1O[C@H](CO)[C@@H](O)[C@H](O)[C@H]1O quantity_kind="Autosampler for 24 h Accuracy (%)" experimental_value=97.6
compound=O=C(/C=C/c1ccc(O)c(O)c1)O[C@H]1[C@H](O)C[C@](O)(C(=O)O)C[C@H]1O quantity_kind="Autosampler for 24 h Accuracy (%)" experimental_value=93.1
compound="CC(C)=CCC[C@](C)(O)[C@H]1CC[C@]2(C)[C@@H]1[C@H](O)C[C@@H]1[C@@]3(C)CC[C@H](O)C(C)(C)[C@@H]3[C@@H](O[C@@H]3O[C@H](CO)[C@@H](O)[C@H](O)[C@H]3O)C[C@]12C [ginsenoside Rh1]" quantity_kind="Autosampler for 24 h Accuracy (%)" experimental_value=86.5
compound="CC(C)(O[C@@H]1O[C@H](CO)[C@@H](O)[C@H](O)[C@H]1O)[C@@H]1CC[C@](O)(CO)[C@H]2CC(=O)[C@@](C)(O)[C@@H]2C1 [atractyloside A]" quantity_kind="Autosampler for 24 h Accuracy (%)" experimental_value=107.0
compound=COc1cc(/C=C/C(=O)O)ccc1O quantity_kind="Autosampler for 24 h Accuracy (%)" experimental_value=86.9
